Biological target: Human CD73 (Homo sapiens, UniProt P21589)
Construct: purchased R&D Systems; host or cells: CHO cells
Sequence (P21589 27-549): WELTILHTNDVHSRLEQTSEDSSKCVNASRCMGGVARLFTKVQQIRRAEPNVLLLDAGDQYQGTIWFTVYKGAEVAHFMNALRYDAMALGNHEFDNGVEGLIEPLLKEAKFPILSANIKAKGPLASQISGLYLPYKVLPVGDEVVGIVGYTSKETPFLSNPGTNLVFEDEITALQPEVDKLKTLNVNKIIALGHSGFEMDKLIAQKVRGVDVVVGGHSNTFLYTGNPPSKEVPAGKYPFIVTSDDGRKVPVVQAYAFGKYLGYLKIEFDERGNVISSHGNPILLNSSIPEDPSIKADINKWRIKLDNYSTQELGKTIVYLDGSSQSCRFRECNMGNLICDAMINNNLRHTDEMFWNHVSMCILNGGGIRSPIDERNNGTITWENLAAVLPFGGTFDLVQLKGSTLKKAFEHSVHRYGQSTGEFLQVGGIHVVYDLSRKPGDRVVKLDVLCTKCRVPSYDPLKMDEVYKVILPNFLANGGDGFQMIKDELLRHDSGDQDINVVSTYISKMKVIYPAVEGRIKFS
Experiment: CD73 Enzyme Assay
Format: biochemical
Conditions: 0.25 nM hCD73, 25 μM AMP, kinetic read at 360 nm; read-out: CD73 Enzyme Assay IC50
Collected IC50 values appear next to each entry.

Recorded IC50, per entry:
INSERT INTO measurements (compound, result) VALUES
  ('C[C@H](Nc1nc(C#N)nc2c1ccn2[C@@H]1O[C@H](COCP(=O)(O)O)[C@@H](O)[C@H]1O)c1ccc(F)cn1', '100 to 1000 nM'),
  ('CCCCCCCCCCCCCCCCOCCCOP(=O)(O)COC[C@H]1O[C@@H](n2ccc3c(NC4CCCC4)nc(Cl)nc32)[C@H](O)[C@@H]1O', '> 1000 nM'),
  ('C[C@H](Nc1nc(Cl)nc2c1cnn2[C@@H]1O[C@H](COCP(=O)(O)O)[C@@H](O)[C@H]1O)c1ccc(F)cc1', '10 to 100 nM'),
  ('O=P(O)(O)CS(=O)(=O)C[C@H]1O[C@@H](n2ccc3c(NC4CCCC4)nc(C(F)(F)F)nc32)[C@H](O)[C@@H]1O', '10 to 100 nM'),
  ('CNc1ncnc2c1ncn2[C@@H]1O[C@H](COCP(=O)(O)O)[C@@H](O)[C@H]1O', '> 1000 nM'),
  ('N#Cc1nc(N2CCC(F)(F)C2)c2cnn([C@@H]3O[C@H](CS(=O)(=O)CP(=O)(O)O)[C@@H](O)[C@H]3O)c2n1', '10 to 100 nM'),
  ('CC(C)N(C)c1nc(Cl)nc2c1ccn2[C@@H]1O[C@H](CS(=O)(=O)CP(=O)(O)O)[C@@H](O)[C@H]1O', '< 10 nM'),
  ('CCOC(=O)[C@H](C)NP(=O)(COC[C@H]1O[C@@H](n2ccc3c(NC4CCCC4)nc(Cl)nc32)[C@H](O)[C@@H]1O)N[C@@H](C)C(=O)OCC', '> 1000 nM');

Query string: Find the measured IC50 of Cc1ccc([C@H](C)Nc2nc(Cl)nc3c2ccn3[C@@H]2O[C@H](CS(=O)(=O)CP(=O)(O)O)[C@@H](O)[C@H]2O)cc1 and report it.
Result string: < 10 nM

Query string: Find the measured IC50 of CC(C)(C)C(=O)OCOP(=O)(CS(=O)(=O)C[C@H]1O[C@@H](n2ccc3c(NC4CCCC4)nc(Cl)nc32)[C@H](O)[C@@H]1O)OCOC(=O)C(C)(C)C and report it.
Result string: 100 to 1000 nM

Query string: Find the measured IC50 of CCN(c1nc(Cl)nc2c1ccn2[C@@H]1O[C@H](COCP(=O)(O)O)[C@@H](O)[C@H]1O)C1CCCC1 and report it.
Result string: < 10 nM

Query string: Find the measured IC50 of CC(C)OC(=O)OCOP(=O)(O)COC[C@H]1O[C@@H](n2ccc3c(NC4CCCC4)nc(Cl)nc32)[C@H](O)[C@@H]1O and report it.
Result string: 10 to 100 nM

Query string: Find the measured IC50 of O=P(O)(O)COC[C@H]1O[C@@H](n2ccc3c(N4CCOCC4)nc(Cl)nc32)[C@H](O)[C@@H]1O and report it.
Result string: 10 to 100 nM

Query string: Find the measured IC50 of O=P(O)(O)CS(=O)(=O)C[C@H]1O[C@@H](n2ccc3c(NC4CCC(F)(F)C4)nc(Cl)nc32)[C@H](O)[C@@H]1O (some centres unmarked) and report it.
Result string: < 10 nM
